# study.system: URAT1 (SLC22A12) (Homo sapiens (Human))
# Sequence (Q96S37 whole entry): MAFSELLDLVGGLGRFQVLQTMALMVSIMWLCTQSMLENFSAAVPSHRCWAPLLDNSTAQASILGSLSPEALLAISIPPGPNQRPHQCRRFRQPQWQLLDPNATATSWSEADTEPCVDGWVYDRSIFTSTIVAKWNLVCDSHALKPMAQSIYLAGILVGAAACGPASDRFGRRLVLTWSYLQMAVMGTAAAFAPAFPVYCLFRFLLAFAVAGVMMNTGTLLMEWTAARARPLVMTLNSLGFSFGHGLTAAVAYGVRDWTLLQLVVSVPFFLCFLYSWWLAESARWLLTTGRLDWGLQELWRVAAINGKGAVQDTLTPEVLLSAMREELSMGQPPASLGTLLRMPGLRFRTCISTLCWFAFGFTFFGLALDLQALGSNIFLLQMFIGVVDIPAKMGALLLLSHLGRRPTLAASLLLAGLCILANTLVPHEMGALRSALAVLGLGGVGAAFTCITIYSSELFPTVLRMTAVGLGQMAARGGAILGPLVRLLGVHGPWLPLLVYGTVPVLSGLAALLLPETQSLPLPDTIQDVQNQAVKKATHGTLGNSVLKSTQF
# experiment.notes: URAT1 (SLC22A12) cellular uptake assay, 3H-orotate transport in stably transfected URAT-1/CHO cells
# Assay type: cell-based
# measurement.context: URAT-1/CHO cells, 3H-orotate uptake, 7 concentrations 0.01 to 150 μM; read-out: URAT1 IC50
I'd appreciate it if you could supply pIC50 values for the items below.
Give bare numbers, as −log10 of the molar value.

As a guide, the following entries are already answered.
Which measured pIC50 value corresponds to O=C(Nc1ccc(O)cc1F)c1c(O)[nH]c(=S)[nH]c1=O [Formula (Ic)] ?
5.23

# iterate: O=C(Nc1ccc(O)cc1F)c1c(O)[nH]c(=O)[nH]c1=O [Formula (Ih)]
5.75

Quick batch: pIC50 for everything below.
1. O=C(Nc1cc(F)c(O)c(F)c1)c1c(O)[nH]c(=O)[nH]c1=O [Formula (Ig)]
2. O=C(Nc1ccncc1)c1c(O)[nH]c(=O)[nH]c1=O [Formula (Ik)]

5.45
5.28

Where do the numbers come from? From patent US10093631B2.
